Exercise: for every item that follows, state its recorded pIC50.
System: Plasmodium falciparum
EXPERIMENT_NOTES: Antiplasmodial activity against chloroquine-sensitive Plasmodium falciparum 3D7 incubated for 72 hrs by DAPI-staining based imaging analysis
Assay type: functional, organism-based
CONDITIONS: 3D7, 72 h
Answers are plain numbers, as −log10 of the molar value.

Illustrative cases are given below, each with its answer.
What pIC50 value was documented for this compound, O=S(=O)(O)CCc1nccc2c1[nH]c1ccccc12 ?
4.92

// pIC50 lookup, key: CCc1ncc(S(C)(=O)=O)c2c1[nH]c1ccccc12
4.68

Suppose we examine the compound c1ccc2c(c1)[nH]c1c([C@H]3CC[C@H]3c3nccc4c3[nH]c3ccccc34)nccc12 ; what pIC50 value has been reported?
5.00

Param item = OCC(O)c1nccc2c1[nH]c1ccccc12 (configuration not stated) ; retrieve measured pIC50.
4.85

Which measured pIC50 value corresponds to C[C@H]1[C@H](OC(=O)CCC(=O)O)O[C@@H]2O[C@@]3(C)CC[C@H]4[C@H](C)CC[C@@H]1[C@@]24OO3 [ARTESUNATE] ?
9.52

***
Look at this compound and give its reported pIC50. CCc1nccc2c1[nH]c1ccccc12
4.74
